Ref: patent US12678428B2

# Assay Explanation: Cytoprotective activity against AGE (methylglyoxal) induced oxidative stress, tryphan blue dye exclusion assay
# Format: cell-based, Human
# Measurement Parameters: human, HaCaT keratinocyte cells, HaCaT cells treated only with Methylglyoxal 300 μM (positive control)
Quantity Measured: viability at 24 h, 300 μM

| Compound | Meas Value |
| --- | --- |
| CC(=O)C=O [Methylglyoxal, reference compound] | ~38.8% |

* * *

# Assay Explanation: In vitro cytotoxicity by MTT assay in HaCaT cells
# Assay type: cell-based
# Measurement Parameters: human, HaCaT keratinocyte cells, test concentration 0.5 mg/mL

| Smiles Entry | cytotoxicity at 24 h, 0.5 mg/mL, % |
| --- | --- |
| Cc1ncc(CO)c(CN)c1O | 25.6 |
